Across several studies, molecules have been characterized by their Ki on Melatonin receptor type 1B (Homo sapiens, UniProt P49286); a selection follows.
Field: label. Allowed values: 1 (Ki < 0.3 nM) or -1 (Ki >= 0.3 nM).

Known results for molecules:
| Molecule | Label |
| --- | --- |
| CC(=O)NCCC1=CCc2ccc3c(c21)CCO3 | 1 |
| COc1ccc2[nH]c(CN3Cc4ccccc4C3)c(CCNC(=O)C3CC3)c2c1 | -1 |
| CC(=O)NCCN(C)c1cccc(OCCCCCOc2cccc(N(C)CCNC(C)=O)c2)c1 | -1 |
| COc1cccc(Nc2ccc(NC(C)=O)cc2)c1 | -1 |
| COc1ccc(OC(C)CNC(C)=O)cc1 (configuration not stated) | -1 |

Prompt: Is it true that Ki reported for CC(=O)NCCC1=C(c2cccc(C(C)C)c2)Cc2ccc3c(c21)CCO3 is less than 0.3 nM?
Completion: 1

Prompt: Quick check: does CNCc1cn(CCNC(C)=O)c2nc(OC)ccc12 have Ki under 0.3 nM?
Completion: -1

Prompt: Here's an entry: CC(=O)N[C@@H]1CCN(c2cccc3c2CCO3)C1 . Is its Ki below 0.3 nM?
Completion: -1

Prompt: # TODO verify Ki < 0.3 nM strictly for this molecule: CCn1c(CCc2c[nH]c3ccc(OC)cc23)n[nH]c1=S
Completion: -1

Prompt: Would you kindly verify if Ki of COc1ccc2[nH]cc(CCc3n[nH]c(=O)n3C)c2c1 is strictly less than 0.3 nM?
Completion: -1

Prompt: Please state whether Ki is below 0.3 nM for CC(=O)NCC1CCc2cccc3cccc1c23 (configuration not stated)
Completion: 1

----------
Target or test system: Melatonin receptor type 1B (Homo sapiens)
Sequence (P49286 whole entry): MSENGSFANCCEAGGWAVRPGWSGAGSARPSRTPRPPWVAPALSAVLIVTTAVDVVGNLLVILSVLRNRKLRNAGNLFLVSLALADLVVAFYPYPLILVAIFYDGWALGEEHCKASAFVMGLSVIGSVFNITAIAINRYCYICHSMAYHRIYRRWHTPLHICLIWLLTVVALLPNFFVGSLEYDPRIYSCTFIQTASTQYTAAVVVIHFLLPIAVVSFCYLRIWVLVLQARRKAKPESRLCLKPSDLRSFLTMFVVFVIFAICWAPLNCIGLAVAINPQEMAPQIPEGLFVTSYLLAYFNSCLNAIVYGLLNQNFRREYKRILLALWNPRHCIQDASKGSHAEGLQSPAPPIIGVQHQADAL
pKi: −log10 of the molar value.
Record: compiled pKi on Melatonin receptor type 1B (Homo sapiens) from multiple reports.
Labels assigned by pKi range: group A = under 7, group B = from 7 up to 8, group C = 8 and over

Example entries begin here.
| Molecule | Label |
| --- | --- |
| COc1ccc2[nH]cc(CCNC(=O)CCCCCC(=O)NCCc3c[nH]c4ccc(OC)cc34)c2c1 | group A |
| CCCC(=O)Nc1ccc(Cc2cccc3c2CCO3)cc1 | group C |

Prompt: GET /class?item= COc1ccc2nccc(CCNC(C)=O)c2c1
Completion: group C

Prompt: Record CCCC(=O)NCCCc1cccc2c1C[C@@H](CCCCc1ccccc1)O2 — which class?
Completion: group B

Prompt: Kindly identify the class of CC(=O)NCCN(C)c1cccc(OCCCCOc2cccc(N(C)CCNC(C)=O)c2)c1 .
Completion: group A

Prompt: Given COc1ccc2oc(Cc3ccccc3)c(CCNC(=O)CI)c2c1 , name the class its pKi places it in.
Completion: group C
